FYI, the data here is from PubChem BioAssay AID179.

system: CEM cells HIV-1 protection, formazan growth assay; assay: NCI AIDS Antiviral Assay; details: measured here: growth of uninfected CEM cells
parameter measured: IC50

                                   compound                       experimental_system  test_result
0  O=[N+]([O-])c1ccc2nc(/C=C(\O)c3ccccc3)c(NC34CC5CC(CC(C5)C3)C4)nc2c1  CEM cells HIV-1 protection, formazan growth assay       182 µM
1  CC(=O)Cc1cc(=O)c2c(C)cc(O)c(C3OC(CO)C(O)C(O)C3O)c2o1 (stereo unspecified)  CEM cells HIV-1 protection, formazan growth assay       316 µM
2  [N-]=[N+]=NC1=NNC2(C(=O)N1)c1ccccc1-c1ccccc12  CEM cells HIV-1 protection, formazan growth assay     > 100 µM

### Prompt Provide only the value of recorded IC50 for `COc1cc(CNc2cnc3cc(N)ccc3n2)cc(OC)c1OC`
### Response 6.46 µM

### Prompt Provide only the value of recorded IC50 for `CCCCOC(=O)NC(Nc1ccc(S(=O)(=O)Nc2ccc(OC)nn2)cc1)(C(F)(F)F)C(F)(F)F`
### Response > 200 µM

### Prompt Provide only the value of recorded IC50 for `Cc1cc(=O)n2c(nc3ccccc32)s1`
### Response > 200 µM

### Prompt Provide only the value of recorded IC50 for `COc1ccc(S(=O)(=O)N(C)C)cc1C(=O)c1cc(S(=O)(=O)N(C)C)ccc1OC`
### Response > 2.29 µM

### Prompt Provide only the value of recorded IC50 for `C=C1CN(S(=O)(=O)c2ccc(C)cc2)CCN(C(=O)OC(C)(C)C)CCN(S(=O)(=O)c2ccc(C)cc2)C1`
### Response 20 µM

### Prompt Provide only the value of recorded IC50 for `COC(=O)N1CC[C@]2(CC=C(C)C)c3ccccc3N(S(=O)(=O)c3ccccc3)[C@H]12`
### Response 24.5 µM

### Prompt Provide only the value of recorded IC50 for `COc1c2occc2c(S(=O)(=O)O)c2ccc(=O)oc12`
### Response > 302 µM
